Cited source for all entries: PubChem BioAssay AID1963963

Some molecules, each annotated with its measured viability, T/C.
# Tested on: 958667-338-R-J2-PDC tumor spheroids viability;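 further: spheroids exposed to compounds for seven days before readout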
# Method summary: Anticancer human tumor 958667-338-R-J2-PDC patient-derived colon adenocarcinoma cell line growth inhibition [PI3K]
# Settings: second compound 1 µM; first compound 0.0316 µM; stronger effect = lower value; spheroids with HUVEC and MSC

As a guide, the following entries are already answered.
C=CC(=O)N1CCN(c2nc(=O)n(-c3c(C)ccnc3C(C)C)c3nc(-c4c(O)cccc4F)c(F)cc23)C(C)C1 (stereo not drawn) + CC(Nc1ccc2c(c1)OCCn1cc(N3C(=O)OCC3C(F)F)nc1-2)C(N)=O    57.2%
CCCS(=O)(=O)Nc1ccc(F)c(C(=O)c2c[nH]c3ncc(-c4ccc(Cl)cc4)cc23)c1F + CC(Nc1ccc2c(c1)OCCn1cc(N3C(=O)OCC3C(F)F)nc1-2)C(N)=O    57.8%

Proceed to the following item.
Problem: Using known records, supply viability, T/C for Cn1nccc1Nc1nccc(-c2ccn(C(CO)c3ccc(Cl)c(F)c3)c(=O)c2)n1 (stereo not drawn) + COc1c(OCCCN2CCOCC2)ccc2c3n(c(=NC(=O)c4cnc(N)nc4)nc12)CCN3
Result: 16.9%
